- Tested system: PSD95-PDZ2 (Homo sapiens, UniProt P78352)
- Construct: PSD95-PDZ2 (residues 155–249, according to PSD95 numbering); made in house; host or cells: Escherichia coli BL21-DE3
- Sequence (P78352 155-249): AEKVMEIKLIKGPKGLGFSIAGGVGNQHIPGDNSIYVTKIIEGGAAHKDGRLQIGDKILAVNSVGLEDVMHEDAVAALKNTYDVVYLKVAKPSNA
- Experiment notes: ITC titration of PSD95-PDZ2 with peptides
- Assay type: binding
- Protocol conditions: ITC, 25 °C, 50 mM potassium phosphate pH 7.5, protein 70 μM in cell, peptide 900 μM, single-site model; n 0.8 to 1.1
Where no end group is shown, it is not given here.
Measured quantity: Kd
The reply should read as a number followed by its unit.

{"columns": ["Substance", "Result"],
 "data": [
  ["KIATLV [AdV E4 ORF1]", "11.5 µM"],
  ["TGWETWV [Erbin PDZ binder]", "5.7 µM"],
  ["FRETEV [HTLV1 Tax]", "1.5 µM"]
]}

Now for the substance whose Kd we want.
Req: Report Kd for IAESSV [HTLV3 Tax] please.
Resp: 20 µM
